These entries and their values trace back to paper PMC6152194.

measured-target: horse BChE (Equus caballus)
Construct: purchased Worthington Biochemical Corporation
Sequence (P81908 whole entry): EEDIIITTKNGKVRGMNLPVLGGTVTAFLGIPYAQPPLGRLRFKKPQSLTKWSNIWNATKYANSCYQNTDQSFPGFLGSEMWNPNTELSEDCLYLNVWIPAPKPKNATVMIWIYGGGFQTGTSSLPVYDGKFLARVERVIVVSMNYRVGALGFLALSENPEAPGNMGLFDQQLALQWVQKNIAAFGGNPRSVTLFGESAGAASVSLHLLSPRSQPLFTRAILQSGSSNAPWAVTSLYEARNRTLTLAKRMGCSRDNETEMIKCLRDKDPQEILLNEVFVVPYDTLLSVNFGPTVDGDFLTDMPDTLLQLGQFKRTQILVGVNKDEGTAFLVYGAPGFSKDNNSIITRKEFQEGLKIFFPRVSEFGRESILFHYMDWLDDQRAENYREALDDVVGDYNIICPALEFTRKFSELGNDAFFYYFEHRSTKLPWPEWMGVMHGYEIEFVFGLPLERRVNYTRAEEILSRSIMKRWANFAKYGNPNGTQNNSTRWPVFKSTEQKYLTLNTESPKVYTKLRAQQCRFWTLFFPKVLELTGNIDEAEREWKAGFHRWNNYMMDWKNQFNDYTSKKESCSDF
assay-text: biochemical
Assay type: biochemical
study-conditions: competitive component of mixed inhibition; from Figure 3, 0.25, 0.5, 1 and 2.5 mM sodium fluoride, 50 μM BSCh; read-out: Ki
readout: pKi
// scale note: pKi = -log10(conc_M); give the bare number

query: For the compound [F-].[Na+] [Sodium fluoride, sodium fluoride] , give its reported pKi.
result: 3.08

###

measured-target: horse BChE (Equus caballus)
Construct: purchased Worthington Biochemical Corporation
assay-text: biochemical
Format: biochemical
study-conditions: read-out: Ki
readout: Ki (nM)
# unit: nM | format: bare number

query: Quote horse BChE (Equus caballus) Ki for entry CN(CC1CCCN(Cc2ccccc2)C1)S(=O)(=O)c1ccc2ccccc2c1 (stereo not shown) [compound 942] .
result: 0.43
